Taken from ChEMBL document CHEMBL3526026.

Assay: Ratio of steady state drug level in brain to plasma in wild-type FVB mouse at 0.6 mg/h/kg, ip administered as infusion after 48 hrs by LC-MS/MS analysis
Type: ADME, organism-based
Settings: read-out: BPR
parameter: Kp at 48 h
Give a plain numeric answer without units written out.

Exercise: For the molecule shown here, C#Cc1cccc(Nc2ncnc3cc(OCCOC)c(OCCOC)cc23)c1.Cl [ERLOTINIB HYDROCHLORIDE] , give the reported Kp at 48 h.
Key: 0.02

----------
Assay: Ratio of drug level in tumor core to plasma in Rowett rat orthotopically xenografted with human U87 cells at 20 mg/kg/day for 3 days by LC-MS/MS analysis in presence of elacridar
Type: ADME, organism-based, U-87MG ATCC
Conditions: with elacridar (dose not stated)
parameter: Kp at 72 h

Exercise: Name the reported Kp at 72 h value associated with the compound C#Cc1cccc(Nc2ncnc3cc(OCCOC)c(OCCOC)cc23)c1.Cl [ERLOTINIB HYDROCHLORIDE]
Key: 1
